system: HCT-116; test: NCI tumour cell line growth inhibition, 48 h
Active and inactive are the calls of the source. No stated cut-off is given here; in the data, active = GI50 up to about 1.1 µM and inactive = higher.
# GI50 per entry

Take a look at these entries with their results.
compound="CC1(C)C(N2CCOCC2)CS1(=O)=O (stereo not drawn)" result="> 10 µM (inactive)"
compound=O=C1CC[C@H]2CNC(=O)C[C@H]2C1 result="> 100 µM (inactive)"
compound=O=C(Nc1ccccc1F)c1cc2ccc(O)cc2o/c1=N\c1cccc(C(F)(F)F)c1 result="2.85 µM (inactive)"
compound=O=C1C(c2ccccc2)=C(c2ccccc2)[C@H](c2ccccc2)[C@]1(Cc1nnn(-c2ccc([N+](=O)[O-])cc2)c1N1CCOCC1)c1ccccc1 result="28.7 µM (inactive)"
compound=CCOC(=O)P(=O)(O)c1ccc(N(C)Cc2ccccc2)cc1 result="> 100 µM (inactive)"

## Task For CCOC(=O)C(=O)C(CCC(=O)c1ccc2ccccc2c1O)C(=O)OCC (stereo not drawn) , what is its reported GI50?
## Result > 100 µM (inactive)

## Task Next entry: CC(=O)NNC1=NN(C(C)=O)C2(S1)C(=O)Nc1ccc(C)cc12 (stereo not drawn)
## Result > 100 µM (inactive)

## Task Next entry: "O=C(CCC(=O)Nc1ccc(Cl)cc1)CC(=O)c1ccc(F)cc1"
## Result > 100 µM (inactive)

## Task Next entry: "S=c1oc(CCCCCCCCc2nn(CNc3ccccc3)c(=S)o2)nn1CNc1ccccc1"
## Result > 100 µM (inactive)

###

test system: SF-295; experiment: NCI tumour cell line growth inhibition, 48 h
Activity calls are given as the source filed them. No stated cut-off is given here; in the data, active = GI50 up to about 1.1 µM and inactive = higher.
Answer with one of the outcomes true (1) for active, false (0) for inactive

compound="O=C1CC(c2cccc(F)c2)Nc2cc3c(cc21)OCO3 (configuration not stated)" discrete_label="true (1)"

## Task Query: recorded result category for C/C(=N\NC(=S)NC(CCC(=O)O)C(=O)O)c1cnccn1 (configuration not stated) in this test
## Result false (0)

###

tested on: KM12; experiment: NCI tumour cell line growth inhibition, 48 h
Calls of active or inactive are those of the source. Cut-off read from the data, not from the text of the source: active = GI50 up to about 1.1 µM and inactive = higher.
# GI50 per entry

Take a look at these entries with their results.
molecule="CCOC(=O)C1=C(C)N(NC(N)=O)C2(O)CCCC(=O)C12C (stereo unspecified)" property=GI50 result="> 100 µM (inactive)"
molecule=COc1cc2c(cc1OC)[C@]1(O)C(=O)c3ccc4c(c3O[C@@H]1CO2)C[C@H](C(C)(C)O)O4 property=GI50 result="> 100 µM (inactive)"
molecule=CC1=CCC[C@H]2[C@](C)(CC3=CC(=O)C(Sc4ccccc4)=CC3=O)[C@@H](C)CC[C@]12C property=GI50 result="41.6 µM (inactive)"
molecule="C=CCC12CCC(=O)C=C1CCC1(C2)OCCO1 (stereo unspecified)" property=GI50 result="> 100 µM (inactive)"

## Task For "C/C(=N\NC(N)=S)c1ccccn1.OB(O)c1ccccc1" , what is its reported GI50?
## Result 7.45 µM (inactive)

## Task Next entry: "CSC1=C(C)S/C(=C\c2ccc(/C=C3\SC(C)=C(SC)S3)cc2)S1"
## Result > 100 µM (inactive)

###

test system: HOP-18; test: NCI tumour cell line growth inhibition, 48 h
Activity calls are given as the source filed them. Cut-off read from the data, not from the text of the source: active = GI50 up to about 1.1 µM and inactive = higher.
Answer with one of the outcomes active, inactive

## Task Query: recorded result category for "O=C1C(c2ccccc2)=C(c2ccccc2)[C@H](c2ccccc2)[C@]1(Cc1nnn(-c2ccc([N+](=O)[O-])cc2)c1N1CCOCC1)c1ccccc1" in this test
## Result inactive

## Task Next entry: "Cc1cc(N(CCC#N)CCC#N)ccc1/C=C1N=C(/C=C\c2ccccc2)N(NC(=O)CC(=O)Nc2ccccc2Cl)C\1=O"
## Result inactive

## Task Next entry: O=C(Cc1ccccc1[N+](=O)[O-])C(CO)c1ccccc1[N+](=O)[O-] (stereo not given)
## Result inactive

## Task Next entry: "CSc1ccc(Cc2cc(C(C)(C)C)cc(C(C)(C)C)c2O)cc1"
## Result inactive

## Task Next entry: CCCC1N2CCCCC2[C@@H]2c3[nH]c4ccccc4c3CCN12 (stereo not given in full)
## Result inactive

## Task Next entry: "c1ccc(C(c2ccccc2)[P+](c2ccccc2)(c2ccccc2)c2ccccc2)cc1"
## Result active

## Task Next entry: "Cc1cccc(C(=O)O)c1C(=O)c1cccc2ccccc12"
## Result inactive

Sourced from ChEMBL document CHEMBL1201862
